Test: Single intravenous dose escalation of P5P, plasma pharmacokinetics (Examples Two and Three)
Type: in vivo, human
Measurement context: both sexes, human, plasma, iv, 1 mg/kg, P5P 1 mg/kg single iv bolus, fasting; plasma; read-out: T½ (converted)
Experimental: A phase one clinical trial was conducted to compare the pharmacokinetics of intravenously administered P5P and orally administered P5P. The trial was a single dose escalation study. […] P5P, pyridoxal, and 4-pyridoxic acid were evaluated in both plasma and urine over a 24 hour interval following either intravenous or oral dosing. […] Concentrations of pyridoxal-5′-phosphate (P5P) were measured from the plasma samples collected over a 24-bour interval after dosing in each phase. […]
Reported metric: half-life

{"columns": ["Compound", "Reported metric", "Result"],
 "data": [
  ["Cc1ncc(COP(=O)(O)O)c(C=O)c1O [P5P, Pyridoxal 5′-phosphate, reference compound]", "half-life", "5.11 h"]
]}
